propertyMeasured: melting point

Here is how some molecules turned out for melting point.
molecule: COC(=O)c1ccc(C(=O)/C=C/c2cc(-c3cc4ccccc4s3)c(OC)cc2OC)cc1
propertyMeasured: melting point
result: 149 to 151 °C

molecule: C=Cc1cc(CNC(=O)NCc2ccc(C(C)(C)C)cc2)cc(C(F)(F)F)c1NS(C)(=O)=O
propertyMeasured: melting point
result: 134 to 136 °C

molecule: CSCC[C@H](N)C(=O)NC(=O)C(CSC(C)=O)Cc1ccccc1 (stereo partly drawn)
propertyMeasured: melting point
result: 119 to 121 °C

Looking up CC#CCOc1ccc(SC(C(=O)O)c2ccc(-c3cccs3)cc2)cc1 (stereo not drawn) , I see its melting point listed as 137 °C

Looking up CC(CC(=O)O)c1ccc(O)cc1O (stereo not drawn) , I see its melting point listed as 92 to 94 °C

Looking up Cn1c(C(F)(F)F)cc(=O)n(-c2cc(OCC#CCOc3ccccc3)c(Cl)cc2F)c1=O , I see its melting point listed as 142 to 144 °C

Looking up Cn1ncc2c1-c1ccc(Cl)cc1C(c1ccccc1F)=NC2 , I see its melting point listed as 128 to 130 °C

Looking up CC1(C)Oc2cc([N+](=O)[O-])c(N)cc2[C@@H](N2CCCC2=O)[C@@H]1O (relative stereo) , I see its melting point listed as 244 to 245 °C
